system: Stagonospora nodorum; assay: Test D: wheat glume blotch, preventive spray on wheat seedlings; conditions: 10 ppm test solution; 100 = 100% disease control, 0 = no control relative to controls
quantityName: Test D disease control rating (%)
Give bare numbers, in %.

See these solved cases before continuing.
compound	targetOrTestSystem	measValue
OC(Cn1cncn1)(C1=NOC(COc2ccc(Cl)cc2)C1)C1(Cl)CC1 (single isomer, unassigned) [Compound 251]	Stagonospora nodorum	100
OC(COc1ccc(Cl)cc1)(Cn1cncn1)C1=NOC(c2ccc(Cl)cc2)C1 (stereo not drawn) [Compound 273]	Stagonospora nodorum	11
CC(C)(C)C(O)(Cn1cncn1)C1=NOC(COc2ccc(Cl)c(Cl)c2)C1 (single isomer, unassigned) [Compound 258]	Stagonospora nodorum	100

Provide each entry's Test D disease control rating from the list below.
1. CC(C)(C)C(O)(Cn1cnnn1)C1=NOC(COc2ccc(Cl)cc2)C1 (stereo not drawn) [Compound 247]
2. CC(C)(C)CC(O)(Cn1cncn1)C1=NOC(COc2ccc(F)cc2)C1 (single isomer, unassigned) [Compound 244]

1. 0
2. 99

Provide each entry's Test D disease control rating from the list below.
1. OC(Cn1cncn1)(Cn1cncn1)C1=NOC(COc2ccc(Cl)cc2)C1 (stereo not drawn)
2. CC1(COc2ccc(Cl)cc2)CC(C(O)(Cn2cncn2)c2ccc(Cl)cc2)=NO1 (single isomer, unassigned) [Compound 219]
3. CCC(C)(C)C(O)(Cn1cncn1)C1=NOC(COc2ccc(F)cc2)C1 (single isomer, unassigned) [Compound 250]
4. CC(C)(C)C(O)(Cn1cncn1)C1=NOC(COc2cccc(Cl)c2)C1 (single isomer, unassigned) [Compound 231]

[0, 0, 64, 100]

Attribution: patent US20160242416A1
